Species on record: Rattus norvegicus
Assay: Compound was evaluated for the drug discrimination assay and the ED50 (potency) was determined in rats
Type: functional
Documented ED50 across a set of compounds
State the answer as a number, implicitly in mg/kg.

Compound	Measurement Units	ED50
CCC(C)c1cc(OC)c(CC(C)N)cc1OC.Cl (centres undefined)	mg/kg	1.8
CCN(CC)C(=O)[C@@H]1C=C2c3cccc4[nH]cc(c34)C[C@H]2N(C)C1 [LYSERGIDE]	mg/kg	0.0077
COc1cc(CC(C)N)c(OC)cc1C (centres undefined)	mg/kg	0.148

Moving on to another compound below.
Input COc1cc(CC(C)N)c(OC)cc1CC(C)C.Cl (centres undefined) . Output ED50: 0.536

Numbers sourced from ChEMBL document CHEMBL1122672.
